The reported numbers originate from paper PMC11968394.

Experimental system: DYRK2 (Homo sapiens)
Sequence (Q92630 whole entry): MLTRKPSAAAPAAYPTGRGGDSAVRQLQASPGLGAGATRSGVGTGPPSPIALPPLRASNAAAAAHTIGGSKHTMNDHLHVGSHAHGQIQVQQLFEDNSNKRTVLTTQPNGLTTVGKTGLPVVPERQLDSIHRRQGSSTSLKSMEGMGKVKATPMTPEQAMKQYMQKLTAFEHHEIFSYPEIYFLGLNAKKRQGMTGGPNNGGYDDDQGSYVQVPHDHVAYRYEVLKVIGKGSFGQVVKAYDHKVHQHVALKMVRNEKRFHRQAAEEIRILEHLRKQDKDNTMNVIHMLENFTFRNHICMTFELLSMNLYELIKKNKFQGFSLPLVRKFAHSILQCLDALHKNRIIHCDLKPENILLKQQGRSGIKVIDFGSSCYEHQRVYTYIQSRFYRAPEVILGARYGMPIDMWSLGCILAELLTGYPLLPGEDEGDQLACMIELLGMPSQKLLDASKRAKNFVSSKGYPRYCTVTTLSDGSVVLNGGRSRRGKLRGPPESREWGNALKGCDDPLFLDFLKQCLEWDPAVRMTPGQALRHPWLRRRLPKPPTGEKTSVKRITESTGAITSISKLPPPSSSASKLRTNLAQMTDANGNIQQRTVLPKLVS
Assay text: Kinase assay DYRK2
Assay type: biochemical
Measured metric: IC50 (nM)

{"columns": ["Compound", "Experimental system", "Numeric result"],
 "data": [
  ["CN1CCN(c2ccc(OC(F)(F)F)c(Nc3ncc4c(n3)-c3c(c(C(N)=O)nn3CCO)CC4)c2)CC1 [NMS-P937]", "DYRK2 (Homo sapiens)", 1150],
  ["[2H]C1([2H])N(C)C([2H])([2H])C([2H])([2H])N(c2ccc(OC(F)(F)F)c(Nc3ncc4c(n3)-c3c(c(C(N)=O)nn3CCO)CC4)c2)C1([2H])[2H] [PR00012]", "DYRK2 (Homo sapiens)", 81.4]
]}

---

Test system: Panc04.03
Assay text: Cell viability (CellTiter-Glo, 72 h), Panc04.03
Type: cell-based, Human
Condition: Homo sapiens, Panc 04.03; Panc04.03, 72 hours
Let's look at some molecules and their measured IC50.
Measured metric: IC50 (nM)

{"columns": ["Molecule", "Numeric result"],
 "data": [
  ["[2H]C1([2H])N(C)C([2H])([2H])C([2H])([2H])N(c2ccc(OC(F)(F)F)c(Nc3ncc4c(n3)-c3c(c(C(N)=O)nn3CCO)CC4)c2)C1([2H])[2H] [PR00012]", 83.8],
  ["CN1CCN(c2ccc(OC(F)(F)F)c(Nc3ncc4c(n3)-c3c(c(C(N)=O)nn3CCO)CC4)c2)CC1 [NMS-P937]", 73]
]}

---

Record: pIC50 reported on CK1ϵ (Homo sapiens, UniProt P49674).
Sequence (P49674 whole entry): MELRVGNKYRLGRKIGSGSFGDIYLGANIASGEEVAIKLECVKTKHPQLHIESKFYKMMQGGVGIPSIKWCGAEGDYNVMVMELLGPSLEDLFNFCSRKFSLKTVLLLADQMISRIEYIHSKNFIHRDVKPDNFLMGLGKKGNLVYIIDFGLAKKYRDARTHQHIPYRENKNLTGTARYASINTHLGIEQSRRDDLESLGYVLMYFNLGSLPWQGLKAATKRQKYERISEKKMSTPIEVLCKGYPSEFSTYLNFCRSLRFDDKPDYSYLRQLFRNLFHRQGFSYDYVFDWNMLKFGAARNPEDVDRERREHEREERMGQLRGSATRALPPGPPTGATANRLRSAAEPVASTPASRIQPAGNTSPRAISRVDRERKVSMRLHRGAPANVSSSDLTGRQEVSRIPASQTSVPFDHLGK
pIC50: −log10 of the molar value.
Measured metric: pIC50

{"columns": ["Smiles string", "Measured metric", "Numeric result"],
 "data": [
  ["[2H]C1([2H])N(C)C([2H])([2H])C([2H])([2H])N(c2ccc(OC(F)(F)F)c(Nc3ncc4c(n3)-c3c(c(C(N)=O)nn3CCO)CC4)c2)C1([2H])[2H]", "pIC50", 6.81],
  ["CN1CCN(c2ccc(OC(F)(F)F)c(Nc3ncc4c(n3)-c3c(c(C(N)=O)nn3CCO)CC4)c2)CC1", "pIC50", 6.81]
]}

---

pIC50: −log10 of the molar value.
Record: pIC50 reported on CK1α (Homo sapiens, UniProt P48729).
Sequence (P48729 whole entry): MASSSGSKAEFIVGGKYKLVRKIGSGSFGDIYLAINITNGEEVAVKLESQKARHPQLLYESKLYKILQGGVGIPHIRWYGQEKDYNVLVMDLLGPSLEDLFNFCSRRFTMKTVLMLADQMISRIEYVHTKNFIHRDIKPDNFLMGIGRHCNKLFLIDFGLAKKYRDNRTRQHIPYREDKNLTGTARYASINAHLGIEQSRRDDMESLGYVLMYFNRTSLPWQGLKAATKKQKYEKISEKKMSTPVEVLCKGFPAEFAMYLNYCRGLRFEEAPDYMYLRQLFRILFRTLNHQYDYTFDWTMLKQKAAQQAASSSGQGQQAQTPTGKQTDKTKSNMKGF

{"columns": ["Molecule", "Experimental system", "pIC50"],
 "data": [
  ["CN1CCN(c2ccc(OC(F)(F)F)c(Nc3ncc4c(n3)-c3c(c(C(N)=O)nn3CCO)CC4)c2)CC1 [NMS-P937]", "CK1α (Homo sapiens, UniProt P48729)", 6.73],
  ["[2H]C1([2H])N(C)C([2H])([2H])C([2H])([2H])N(c2ccc(OC(F)(F)F)c(Nc3ncc4c(n3)-c3c(c(C(N)=O)nn3CCO)CC4)c2)C1([2H])[2H] [PR00012]", "CK1α (Homo sapiens, UniProt P48729)", 6.74]
]}

---

Assay text: Caco-2 permeability assay
Assay type: in vitro ADME
Condition: human; Caco-2, 5 μM, 2 hours
Measured metric: Papp A→B at 2 h, 5 μM

{"columns": ["Compound", "Measured metric", "Result"],
 "data": [
  ["C[C@H]1O[C@@H](O[C@H]2[C@@H](O)C[C@H](O[C@H]3[C@@H](O)C[C@H](O[C@H]4CC[C@@]5(C)[C@H](CC[C@@H]6[C@@H]5C[C@@H](O)[C@]5(C)[C@@H](C7=CC(=O)OC7)CC[C@]65O)C4)O[C@@H]3C)O[C@@H]2C)C[C@H](O)[C@@H]1O", "Papp A→B at 2 h, 5 μM", "0.9 ×10⁻⁶ cm/s"],
  ["CN1CCN(c2ccc(OC(F)(F)F)c(Nc3ncc4c(n3)-c3c(c(C(N)=O)nn3CCO)CC4)c2)CC1", "Papp A→B at 2 h, 5 μM", "6.1 ×10⁻⁶ cm/s"],
  ["[2H]C1([2H])N(C)C([2H])([2H])C([2H])([2H])N(c2ccc(OC(F)(F)F)c(Nc3ncc4c(n3)-c3c(c(C(N)=O)nn3CCO)CC4)c2)C1([2H])[2H]", "Papp A→B at 2 h, 5 μM", "5.2 ×10⁻⁶ cm/s"],
  ["CC(C)NCC(O)COc1cccc2ccccc12 (stereo not shown)", "Papp A→B at 2 h, 5 μM", "22.3 ×10⁻⁶ cm/s"]
]}
